Reported OD (PE binding ELISA) by item:
- Target: T1, mouse IL-2Rα (mouse, UniProt P01590 22-236, limits assumed)
- T1 construct: recombinant protein; also called mo IL-2R; mouse IL-2Ra
- T1 sequence (looked up): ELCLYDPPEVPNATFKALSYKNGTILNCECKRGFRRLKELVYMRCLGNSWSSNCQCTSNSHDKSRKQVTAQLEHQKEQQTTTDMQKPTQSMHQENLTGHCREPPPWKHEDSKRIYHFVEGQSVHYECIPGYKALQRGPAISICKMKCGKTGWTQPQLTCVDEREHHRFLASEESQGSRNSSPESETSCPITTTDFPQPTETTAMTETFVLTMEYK
- Test method notes: ELISA, P.E. on coated antigen
Parameter measured: OD (PE binding ELISA)

INSERT INTO measurements (binder, parameter_measured, result) VALUES
  ('4-MP01F04 (VHH, periplasmic extract; also called FJ1427_P035MP01F04) VHH: QVQLVESGGGLVQAGGSLRLSCAASGGTFRTRNMGWFRRAPGKEREFVAAVSWNVDNKLYADSVKGRFTISRDNGRNMVYLQMNSLKPEDTAVYYCAADNIPLSSDMRPTATEYDYWGQGTQVTVSS', 'OD (PE binding ELISA)', '0.046 OD450 nm'),
  ('FJ1427_P035MP05D04 (VHH, periplasmic extract; also called clone nr) VHH: QLQLVESGGGLVQAGGSLRLSCAASGLTFDGYAIGWFRQASGKEREGVSYINGRDGSTFYADSVKGRFIISSDNAKNTVDLQMNSLNPDDAAVYYCAVDRLGSRGAYVSSWWRSPDMDLWGKGTLVTVSS', 'OD (PE binding ELISA)', '0.045 OD450 nm'),
  ('FJ1427_P035MP05E10 (VHH, periplasmic extract; also called clone nr) VHH: EVQLVESGGGLVQAGGSLRLSCTASGLTFDGYAIGWFRQAPGKEREGVSYITGSDGSTYYIDSVKGRFTISSDIAKSTVYLQMNSLKPEDTAVYYCAVDRLGSRGLYASSWWRSGDMDLWGKGTLVTVSS', 'OD (PE binding ELISA)', '0.718 OD450 nm'),
  ('FJ1427_P035MP05H08 (VHH, periplasmic extract; also called clone nr) VHH: QLQLVESGGGLVQAGGSLRLSCAASGLTFDGYAIGWFRQASGKEREGVSYINGRDGSTFYADSVKGRFIISSDNAKNTVDLQMNSLKPDDAAVYYCAVDRLGSRGAYVSTWWRSPDMDLWGKGTLVTVSS', 'OD (PE binding ELISA)', '0.05 OD450 nm'),
  ('9-MP05G01 (VHH, periplasmic extract; also called FJ1427_P035MP05G01) VHH: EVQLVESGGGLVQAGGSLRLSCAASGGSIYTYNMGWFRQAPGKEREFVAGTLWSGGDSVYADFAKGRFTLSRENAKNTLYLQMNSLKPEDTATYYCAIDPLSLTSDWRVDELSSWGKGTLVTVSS', 'OD (PE binding ELISA)', '0.047 OD450 nm'),
  ('FJ1427_P035MP05H09 (VHH, periplasmic extract; also called clone nr) VHH: QLQLVESGGDLVQPGGSLRLSCTASGLTFDGYAIGWFRQAPGKEREGVSYITGSNGSTYYIDSVKGRFTISSDIAKSTVYLQMNTLKPEDTAVYYCAVDRLGSRGLYASSWWRSGDMDLWGKGTLVTVSS', 'OD (PE binding ELISA)', '0.154 OD450 nm'),
  ('FJ1427_P035MP01C11 (VHH, periplasmic extract; also called clone nr; 83) VHH: QVQLVESGGGLVQAGGSLRLSCAASGGTFRTRNMGWFRRAPGKEREFVAAVSWNVDNKLYAGSVKGRFTISRDNGRNMVYLQMNSLKPEDTAVYYCAADNIPLSSDMRPTATEYDYWGQGTQVTVSS', 'OD (PE binding ELISA)', '0.045 OD450 nm'),
  ('FJ1427_P035MP05A05 (VHH, periplasmic extract; also called clone nr; 417) VHH: QLQLVESGGGLVQAGGSLRLSCAASGLTFDGYAIGWFRQASGKEREGVSYINGRDGSTFYADSVKGRFIISSDNAKNTVDLQMNSLKPDDAAVYYCAVDRLGSRGAYVSTWWRPPDMDLWGKGTLVTVSP', 'OD (PE binding ELISA)', '0.052 OD450 nm'),
  ('FJ1427_P035MP05C09 (VHH, periplasmic extract; also called clone nr) VHH: QLQLVESGGGLVQAGGSLRLSCAASGFTFDGYAIGWFRQAPGKEREGVSYITGSDGSTYYADSVKGRFTISSNNAKNTVYLHMNSLKPDDAAVYYCAIDRLGSRGAYVPIWWRSSDMDLWGKGTLVTVSS', 'OD (PE binding ELISA)', '0.059 OD450 nm'),
  ('FJ1427_P035MP05A10 (VHH, periplasmic extract; also called clone nr) VHH: QLQLVESGGGLVQAGGSLRLSCTASGLTFDGYAIGWFRQAPGKEREGVSYITGSDGSTYYIDSVKGRFTISSDIAKSTVYLQMNSLKPEDTAVYYCAVDRLGSRGLYASSWWRSGDMDLWGKGTLVTVSS', 'OD (PE binding ELISA)', '0.24 OD450 nm'),
  ('12-MP05B12 (VHH, periplasmic extract; also called FJ1427_P035MP05B12) VHH: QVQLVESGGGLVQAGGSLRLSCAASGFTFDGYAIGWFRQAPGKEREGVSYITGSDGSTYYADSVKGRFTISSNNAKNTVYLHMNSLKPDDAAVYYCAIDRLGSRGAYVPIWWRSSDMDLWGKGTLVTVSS', 'OD (PE binding ELISA)', '0.936 OD450 nm');

Values were extracted from patent US20240409645A1.
